target: full-length human CRM1(E571K) (human, UniProt O14980 1-1071, E571K); assay: differential photobleaching
Sequence (O14980 whole entry E571K): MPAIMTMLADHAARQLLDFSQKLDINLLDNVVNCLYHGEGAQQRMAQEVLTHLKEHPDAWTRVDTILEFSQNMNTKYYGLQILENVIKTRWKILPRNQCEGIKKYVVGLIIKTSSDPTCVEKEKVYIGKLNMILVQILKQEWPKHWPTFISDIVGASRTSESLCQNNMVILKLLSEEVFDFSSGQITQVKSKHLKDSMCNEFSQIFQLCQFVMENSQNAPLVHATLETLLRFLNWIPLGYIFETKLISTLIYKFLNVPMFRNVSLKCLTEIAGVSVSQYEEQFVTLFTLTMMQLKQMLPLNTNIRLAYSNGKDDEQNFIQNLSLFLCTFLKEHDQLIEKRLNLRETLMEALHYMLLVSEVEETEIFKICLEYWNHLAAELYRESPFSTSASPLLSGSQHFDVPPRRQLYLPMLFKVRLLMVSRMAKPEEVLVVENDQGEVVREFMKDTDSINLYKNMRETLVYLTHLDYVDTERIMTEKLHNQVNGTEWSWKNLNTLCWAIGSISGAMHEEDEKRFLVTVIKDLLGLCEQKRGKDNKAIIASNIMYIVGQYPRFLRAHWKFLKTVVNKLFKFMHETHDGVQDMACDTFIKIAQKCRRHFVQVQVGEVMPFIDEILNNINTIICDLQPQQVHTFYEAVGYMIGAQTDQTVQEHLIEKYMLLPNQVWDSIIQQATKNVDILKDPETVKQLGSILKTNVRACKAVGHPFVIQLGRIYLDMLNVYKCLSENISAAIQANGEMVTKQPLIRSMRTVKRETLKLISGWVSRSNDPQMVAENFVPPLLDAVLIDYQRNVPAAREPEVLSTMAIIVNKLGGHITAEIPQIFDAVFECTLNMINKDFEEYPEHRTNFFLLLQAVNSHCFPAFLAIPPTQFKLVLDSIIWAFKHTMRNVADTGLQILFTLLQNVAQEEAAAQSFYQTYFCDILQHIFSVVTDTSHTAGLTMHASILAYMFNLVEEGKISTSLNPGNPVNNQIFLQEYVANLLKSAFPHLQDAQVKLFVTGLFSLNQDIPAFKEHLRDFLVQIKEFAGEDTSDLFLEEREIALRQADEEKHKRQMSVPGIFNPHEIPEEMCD
MEASUREMENT_TYPE: Kd (µM)
All answers are understood in µM, so give the number only.

So for YERVVSPGIDLSGLTLQ [MBP-Smad4^NES] , the logged Kd turned out to be 13

The recorded Kd for entry SVPEVEALLARLRAL [MBP-mDia2^NES] equals 1.5

Looking up MEELSQALASSFSVSQDLNS [MBP-Snupn1^NES] , I see its Kd listed as 21

Given item TNLEALQKKLEELELDEQ [MBP-Mek1^NES] , the value recorded as its Kd is 0.005
